Where do these numbers come from? They come from patent US12162836B2.

- Target or system: hERG (Homo sapiens (Human), UniProt Q12809)
- Sequence (Q12809 whole entry): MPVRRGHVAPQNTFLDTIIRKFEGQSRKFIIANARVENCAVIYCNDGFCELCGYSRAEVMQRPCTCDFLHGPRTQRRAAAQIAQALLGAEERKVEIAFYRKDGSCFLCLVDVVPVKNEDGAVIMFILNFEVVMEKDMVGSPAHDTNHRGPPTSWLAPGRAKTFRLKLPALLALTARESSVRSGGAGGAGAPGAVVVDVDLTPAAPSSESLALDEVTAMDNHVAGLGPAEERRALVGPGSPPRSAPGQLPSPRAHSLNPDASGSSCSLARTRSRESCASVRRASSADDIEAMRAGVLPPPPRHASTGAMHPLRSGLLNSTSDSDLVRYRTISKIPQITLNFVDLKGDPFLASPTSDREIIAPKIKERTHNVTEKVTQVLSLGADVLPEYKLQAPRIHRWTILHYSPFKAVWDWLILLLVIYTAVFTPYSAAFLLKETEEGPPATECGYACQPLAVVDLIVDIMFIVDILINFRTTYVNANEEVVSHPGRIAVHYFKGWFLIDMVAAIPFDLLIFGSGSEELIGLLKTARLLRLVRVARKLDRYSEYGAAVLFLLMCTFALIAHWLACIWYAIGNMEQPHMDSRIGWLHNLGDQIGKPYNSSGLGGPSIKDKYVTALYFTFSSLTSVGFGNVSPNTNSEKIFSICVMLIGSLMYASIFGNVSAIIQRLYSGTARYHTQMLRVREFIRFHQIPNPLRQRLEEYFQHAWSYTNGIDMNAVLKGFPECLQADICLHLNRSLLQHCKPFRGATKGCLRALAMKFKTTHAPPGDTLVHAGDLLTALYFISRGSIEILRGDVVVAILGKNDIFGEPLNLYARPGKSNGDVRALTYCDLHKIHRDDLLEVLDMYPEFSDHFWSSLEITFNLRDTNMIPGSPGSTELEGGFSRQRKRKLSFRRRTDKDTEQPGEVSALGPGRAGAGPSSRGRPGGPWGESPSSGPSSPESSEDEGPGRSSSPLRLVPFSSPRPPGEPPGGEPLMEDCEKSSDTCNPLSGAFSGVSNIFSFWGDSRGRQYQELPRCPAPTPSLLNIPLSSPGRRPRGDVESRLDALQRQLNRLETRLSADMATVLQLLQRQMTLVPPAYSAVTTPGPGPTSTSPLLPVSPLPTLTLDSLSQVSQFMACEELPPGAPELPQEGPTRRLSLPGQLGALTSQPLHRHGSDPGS
- Experiment: hERG Ion Channel binding assay (3H astemizole displacement)
- Condition parameters: human, membranes of HEK293 cells stably expressing hERG, pH 7.4, probe 3H astemizole (1.5 nM); 30 μM; displacement of 3H astemizole, hERG-HEK293 membranes
Let's look at some compounds and their measured inhibition at 60 min, 30 µM.

{"Compound": "CC(=O)N1CCC(CS(=O)(=O)c2ccc(-c3cc(F)cc(F)c3)cc2)CC1", "inhibition at 60 min, 30 µM (%)": 39}
{"Compound": "CC(=O)N1CCC(CS(=O)(=O)c2ccc(-c3ccc(C(F)(F)F)cc3F)cc2)CC1", "inhibition at 60 min, 30 µM (%)": 79}
{"Compound": "CCC(=O)N1CCC(CS(=O)(=O)c2ccc(-c3ccc(F)cc3F)cc2)CC1", "inhibition at 60 min, 30 µM (%)": 45}
{"Compound": "CC(=O)N1CCC(C(F)(F)S(=O)(=O)c2ccc(-c3ccc(F)cc3F)cc2)CC1", "inhibition at 60 min, 30 µM (%)": 21}
{"Compound": "CC(=O)N1CCC(C(C)S(=O)(=O)c2ccc(-c3ccc(F)cc3F)cc2)CC1 (centres unmarked)", "inhibition at 60 min, 30 µM (%)": 14}
{"Compound": "CC(=O)N1CCC(C2(S(=O)(=O)c3ccc(-c4ccc(F)cc4F)cc3)CC2)CC1", "inhibition at 60 min, 30 µM (%)": 1}
{"Compound": "CC(=O)N1CCC(CS(=O)(=O)c2ccc(-c3ccc(F)c(F)c3)cc2)CC1", "inhibition at 60 min, 30 µM (%)": 30}
{"Compound": "CC(=O)N1CCC(CS(=O)(=O)c2ccc(-c3c(F)cccc3F)cc2)CC1", "inhibition at 60 min, 30 µM (%)": 7}
{"Compound": "CC(=O)N1CCC(CS(=O)(=O)c2ccc(-c3ccc(F)cc3F)cc2)CC1", "inhibition at 60 min, 30 µM (%)": 14}
{"Compound": "CC(=O)N1CCC(CS(=O)(=O)c2ccc(-c3cc(F)ccc3F)cc2)CC1", "inhibition at 60 min, 30 µM (%)": 20}
{"Compound": "CC(=O)N1CCC(CS(=O)(=O)c2ccc(-c3ccc(C#N)cc3Cl)cc2)CC1", "inhibition at 60 min, 30 µM (%)": 23}
{"Compound": "CC(=O)N1CCC(C(C)(C)S(=O)(=O)c2ccc(-c3ccc(F)cc3F)cc2)CC1", "inhibition at 60 min, 30 µM (%)": 14}
{"Compound": "CC(=O)N1CCC(CS(=O)(=O)c2ccc(-c3ccc(F)cc3F)cc2C(F)(F)F)CC1", "inhibition at 60 min, 30 µM (%)": 35}
{"Compound": "CC(=O)N1CCC(CS(=O)(=O)c2ccc(-c3ccc(Cl)cc3C#N)cc2)CC1", "inhibition at 60 min, 30 µM (%)": 35}

====

- Target or system: CYP2D6 (Homo sapiens (Human), UniProt P10635)
- Sequence (P10635 whole entry): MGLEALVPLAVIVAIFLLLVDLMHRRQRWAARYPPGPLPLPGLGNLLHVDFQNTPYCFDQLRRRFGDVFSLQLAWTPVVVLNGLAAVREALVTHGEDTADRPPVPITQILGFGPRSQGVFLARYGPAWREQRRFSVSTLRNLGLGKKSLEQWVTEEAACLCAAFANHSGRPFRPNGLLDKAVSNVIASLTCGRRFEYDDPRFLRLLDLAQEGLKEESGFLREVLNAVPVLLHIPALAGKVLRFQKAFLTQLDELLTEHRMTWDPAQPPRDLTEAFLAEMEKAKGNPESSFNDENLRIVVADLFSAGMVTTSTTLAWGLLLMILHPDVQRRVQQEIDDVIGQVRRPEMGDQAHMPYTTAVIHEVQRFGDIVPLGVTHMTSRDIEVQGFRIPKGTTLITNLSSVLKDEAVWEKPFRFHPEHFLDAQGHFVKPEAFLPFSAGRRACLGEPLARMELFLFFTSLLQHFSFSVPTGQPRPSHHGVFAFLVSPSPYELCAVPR
- Experiment: Human Cytochrome P450 Inhibition Assay (Bactosomes)
- Assay type: in vitro ADME
- Condition parameters: recombinant Bactosomes, 10 minutes

{"Compound": "CC1(O)CCC(NS(=O)(=O)c2ccc(-c3cc(F)c(F)cc3F)cc2)CC1 (stereo not shown) [HMC-C-10-B, reference compound]", "IC50": "> 16 µM"}
{"Compound": "CC1(O)CCC(NS(=O)(=O)c2ccc(-c3ccc(F)cc3F)cc2)CC1 (stereo not shown) [ABD899, reference compound]", "IC50": "45.3 µM"}
{"Compound": "CC(=O)N1CCC(CS(=O)(=O)c2ccc(-c3ccc(C(F)(F)F)cc3F)cc2)CC1 [NASMP-07]", "IC50": "> 50 µM"}
{"Compound": "CC(=O)N1CCC(CS(=O)(=O)c2ccc(-c3ccc(Cl)cc3C#N)cc2)CC1 [NASMP-06]", "IC50": "> 50 µM"}
{"Compound": "CC(=O)N1CCC(CS(=O)(=O)c2ccc(-c3c(F)cccc3F)cc2)CC1 [NASMP-09]", "IC50": "> 50 µM"}
{"Compound": "CC(=O)N1CCC(CS(=O)(=O)c2ccc(-c3ccc(F)cc3F)cc2)CC1 [NASMP-01]", "IC50": "> 50 µM"}
{"Compound": "CC(=O)N1CCC(CS(=O)(=O)c2ccc(-c3ccc(C#N)cc3Cl)cc2)CC1 [NASMP-05]", "IC50": "> 50 µM"}
{"Compound": "C[C@]1(O)CC[C@H](NS(=O)(=O)c2ccc(-c3ccc(Cl)cc3C#N)cc2)CC1 [HMC-C-01-A, reference compound]", "IC50": "16.6 µM"}
{"Compound": "CC1(O)CCC(NS(=O)(=O)c2ccc(-c3ncc(Cl)cc3C#N)cc2)CC1 (stereo not shown) [HMC-N-05-A, reference compound]", "IC50": "> 50 µM"}
{"Compound": "CC(=O)N1CCC(CS(=O)(=O)c2ccc(-c3ccc(F)cc3F)cc2C(F)(F)F)CC1 [NASMP-12]", "IC50": "45.4 µM"}
{"Compound": "CCC(=O)N1CCC(CS(=O)(=O)c2ccc(-c3ccc(F)cc3F)cc2)CC1 [NASMP-15]", "IC50": "> 50 µM"}
{"Compound": "CC1(O)CCC(NS(=O)(=O)c2ccc(-c3ccc(C#N)cc3Cl)cc2)CC1 (stereo not shown) [HMC-C-09-A, reference compound]", "IC50": "> 50 µM"}
{"Compound": "CC1(O)CCC(NS(=O)(=O)c2ccc(-c3ccc(Cl)cc3C#N)c(Cl)c2)CC1 (stereo not shown) [HMC-C-11-A, reference compound]", "IC50": "9.3 µM"}

====

Let's look at some compounds and their measured IC50.
- Target or system: CYP2C19 (Homo sapiens (Human), UniProt P33261)
- Sequence (P33261 whole entry): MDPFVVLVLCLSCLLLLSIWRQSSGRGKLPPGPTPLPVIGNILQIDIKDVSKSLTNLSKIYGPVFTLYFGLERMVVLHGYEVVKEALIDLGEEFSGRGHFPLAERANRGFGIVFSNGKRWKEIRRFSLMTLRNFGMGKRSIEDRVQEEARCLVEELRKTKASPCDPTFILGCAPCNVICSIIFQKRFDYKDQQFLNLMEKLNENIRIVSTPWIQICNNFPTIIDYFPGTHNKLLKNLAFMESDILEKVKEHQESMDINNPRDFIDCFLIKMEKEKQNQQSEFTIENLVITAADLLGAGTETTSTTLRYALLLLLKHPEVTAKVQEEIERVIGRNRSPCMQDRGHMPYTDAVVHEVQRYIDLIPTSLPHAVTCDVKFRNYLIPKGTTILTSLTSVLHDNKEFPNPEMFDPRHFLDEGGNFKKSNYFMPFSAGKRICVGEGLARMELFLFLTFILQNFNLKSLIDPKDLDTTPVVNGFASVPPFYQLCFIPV
- Experiment: Human Cytochrome P450 Inhibition Assay (Bactosomes)
- Format: in vitro ADME
- Condition parameters: recombinant Bactosomes, 10 minutes
Property: IC50

{"Compound": "CC1(O)CCC(NS(=O)(=O)c2ccc(-c3cc(F)c(F)cc3F)cc2)CC1 (stereo not shown) [HMC-C-10-B, reference compound]", "Endpoint result": "8.5 µM"}
{"Compound": "CC1(O)CCC(NS(=O)(=O)c2ccc(-c3ncc(Cl)cc3C#N)cc2)CC1 (stereo not shown) [HMC-N-05-A, reference compound]", "Endpoint result": "> 50 µM"}
{"Compound": "CC(=O)N1CCC(CS(=O)(=O)c2ccc(-c3ccc(C(F)(F)F)cc3F)cc2)CC1 [NASMP-07]", "Endpoint result": "36.4 µM"}
{"Compound": "CC1(O)CCC(NS(=O)(=O)c2ccc(-c3ccc(Cl)cc3C#N)c(Cl)c2)CC1 (stereo not shown) [HMC-C-11-A, reference compound]", "Endpoint result": "5.1 µM"}

====

Let's look at some molecules and their measured IC50.
- Target or system: CYP1A2 (Homo sapiens (Human), UniProt P05177)
- Sequence (P05177 whole entry): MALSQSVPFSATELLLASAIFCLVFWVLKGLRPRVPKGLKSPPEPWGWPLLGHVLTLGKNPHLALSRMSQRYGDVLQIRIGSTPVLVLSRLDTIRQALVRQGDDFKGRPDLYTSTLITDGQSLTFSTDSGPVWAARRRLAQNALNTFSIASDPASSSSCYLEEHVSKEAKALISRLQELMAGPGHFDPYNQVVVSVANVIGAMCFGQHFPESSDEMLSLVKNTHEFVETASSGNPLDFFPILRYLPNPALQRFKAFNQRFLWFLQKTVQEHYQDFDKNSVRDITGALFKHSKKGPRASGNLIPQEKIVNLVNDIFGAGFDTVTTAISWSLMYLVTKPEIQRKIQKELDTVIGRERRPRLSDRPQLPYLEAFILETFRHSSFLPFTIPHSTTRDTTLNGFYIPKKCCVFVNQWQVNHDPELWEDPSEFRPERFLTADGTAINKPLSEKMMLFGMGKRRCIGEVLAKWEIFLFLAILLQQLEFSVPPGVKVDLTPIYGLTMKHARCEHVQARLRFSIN
- Experiment: Human Cytochrome P450 Inhibition Assay (Bactosomes)
- Format: in vitro ADME
- Condition parameters: recombinant enzyme

{"Molecule": "CC1(O)CCC(NS(=O)(=O)c2ccc(-c3ccc(C#N)cc3Cl)cc2)CC1 (centres unmarked) [HMC-C-09-A, reference compound]", "Unit label": "µM", "Qualifying sign": "=", "IC50": 23}
{"Molecule": "CC1(O)CCC(NS(=O)(=O)c2ccc(-c3ccc(F)cc3F)cc2)CC1 (centres unmarked) [ABD899, reference compound]", "Unit label": "µM", "Qualifying sign": ">", "IC50": 25}
{"Molecule": "CC1(O)CCC(NS(=O)(=O)c2ccc(-c3ncc(Cl)cc3C#N)cc2)CC1 (centres unmarked) [HMC-N-05-A, reference compound]", "Unit label": "µM", "Qualifying sign": "=", "IC50": 36}
{"Molecule": "CC1(O)CCC(NS(=O)(=O)c2ccc(-c3cc(F)c(F)cc3F)cc2)CC1 (centres unmarked) [HMC-C-10-B, reference compound]", "Unit label": "µM", "Qualifying sign": ">", "IC50": 16}
{"Molecule": "CC1(O)CCC(NS(=O)(=O)c2ccc(-c3ccc(Cl)cc3C#N)c(Cl)c2)CC1 (centres unmarked) [HMC-C-11-A, reference compound]", "Unit label": "µM", "Qualifying sign": "=", "IC50": 11}

====

Let's look at some compounds and their measured Bioavail, F.
- Experiment: Rodent Pharmacokinetics Studies
- Format: in vivo, rat
- Condition parameters: male Han Wistar rats; oral vs intravenous

{"Compound": "CC(=O)N1CCC(CS(=O)(=O)c2ccc(-c3ccc(F)cc3F)cc2C(F)(F)F)CC1", "Qualifying sign": ">", "Bioavail, F [%]": 69}
{"Compound": "CC(=O)N1CCC(CS(=O)(=O)c2ccc(-c3ccc(F)cc3F)cc2)CC1", "Qualifying sign": "=", "Bioavail, F [%]": 56}
{"Compound": "CCC(=O)N1CCC(CS(=O)(=O)c2ccc(-c3ccc(F)cc3F)cc2)CC1", "Qualifying sign": ">", "Bioavail, F [%]": 62}
{"Compound": "CC(=O)N1CCC(CS(=O)(=O)c2ccc(-c3ccc(Cl)cc3C#N)cc2)CC1", "Qualifying sign": "=", "Bioavail, F [%]": 24}
{"Compound": "CC1(O)CCC(NS(=O)(=O)c2ccc(-c3ccc(F)cc3F)cc2)CC1 (centres unmarked) [ABD899, reference compound]", "Qualifying sign": "=", "Bioavail, F [%]": 50}
